Each recorded value in this set is attributed to patent US12139488B2.

- Test system: SW620 cells (KRAS-G12V)
- method: Proliferation inhibition (CellTiter-Glo), SW620
- Assay type: cell-based, human
- protocol-conditions: Homo sapiens, SW-620, 72 h; SW620, 3 days; read-out: SW620 Prolif. EC50
value-type: EC50

{"compound": "Cc1ccc2c(Nc3cccc(Cl)c3F)nccc2c1NC(=O)c1csc2c(N)ncnc12 [Belvarafenib, reference compound]", "experimental-result": "0.3 to 3 µM"}

----------
- System: pERK in HCT-116 cells (KRAS G13D)
- method: Phospho-ERK inhibition (AlphaLISA SureFire Ultra p-ERK 1/2), HCT116
- Type: cell-based, human
- protocol-conditions: HCT116 cells; class symbol
value-type: IC50

{"molecule": "Cc1c(F)cccc1S(=O)(=O)Nc1ccc(F)c(Nc2ncnc3ccc(-n4cnc5c(CC#N)cccc54)nc23)c1F [Example 361]", "value-type": "IC50", "experimental-result": "< 500 nM"}
{"molecule": "CN(C)C1CCN(S(=O)(=O)c2cn(-c3ccc4ncnc(Nc5c(F)ccc(NS(=O)(=O)c6cccc(Cl)c6Cl)c5F)c4n3)c3ccccc23)CC1 [Ex 387]", "value-type": "IC50", "experimental-result": "< 500 nM"}
{"molecule": "CN(CCc1ccccn1)C(=O)c1nn(-c2ccc3ncnc(Nc4c(F)ccc(NS(=O)(=O)c5cccc(Cl)c5Cl)c4F)c3n2)c2ccccc12 [Ex 370]", "value-type": "IC50", "experimental-result": "< 500 nM"}
{"molecule": "CN(C)CC(C)(C)S(=O)(=O)c1cn(-c2ccc3ncnc(Nc4c(F)ccc(NS(=O)(=O)c5cccc(Cl)c5Cl)c4F)c3n2)c2ccccc12 [Example 456]", "value-type": "IC50", "experimental-result": "< 500 nM"}
{"molecule": "O=S(=O)(Nc1ccc(F)c(Nc2ncnc3ccc(-n4cc(S(=O)(=O)N5CC6COCC6C5)c5ccccc54)nc23)c1F)c1cccc(Cl)c1Cl (stereo not drawn) [Ex 451]", "value-type": "IC50", "experimental-result": "< 500 nM"}
{"molecule": "O=S(=O)(Nc1ccc(F)c(Nc2ncnc3ccc(-n4cc(S(=O)(=O)N5CCN(C6CCCCC6)CC5)c5ccccc54)nc23)c1F)c1cccc(Cl)c1Cl [Ex 380]", "value-type": "IC50", "experimental-result": "1000 to 10000 nM"}

----------
The entries below are paired with their reported pIC50.
- Tested on: pERK in HCT-116 cells (KRAS G13D)
- method: Phospho-ERK inhibition (AlphaLISA SureFire Ultra p-ERK 1/2), HCT116
- Type: cell-based, human
- protocol-conditions: HCT116 cells; class symbol
pIC50: −log10 of the molar value.
value-type: pIC50

{"query-smiles": "Cc1nc(N)ccc1S(=O)(=O)Nc1ccc(F)c(Nc2ncnc3ccc(-n4cnc5c(N)cccc54)nc23)c1F", "value-type": "pIC50", "experimental-result": "5.00 to 6.00"}
{"query-smiles": "O=S(=O)(Nc1ccc(F)c(Nc2ncnc3ccc(-n4cnc5c(CCO)cccc54)nc23)c1F)c1cccc(Cl)c1Cl", "value-type": "pIC50", "experimental-result": "> 6.30"}
{"query-smiles": "Nc1nccc2c1ncn2-c1ccc2ncnc(Nc3c(F)ccc(NS(=O)(=O)c4cccc(Cl)c4Cl)c3F)c2n1", "value-type": "pIC50", "experimental-result": "> 6.30"}
{"query-smiles": "CCOc1cccc2c1ncn2-c1ccc2ncnc(Nc3c(F)ccc(NS(=O)(=O)c4cccc(Cl)c4Cl)c3F)c2n1", "value-type": "pIC50", "experimental-result": "6.00 to 6.30"}
{"query-smiles": "CC(=O)c1cn(-c2ccc3ncnc(Nc4c(F)ccc(NS(=O)(=O)c5cccc(Cl)c5Cl)c4F)c3n2)c2ccccc12", "value-type": "pIC50", "experimental-result": "5.00 to 6.00"}
{"query-smiles": "CN(C)CCNS(=O)(=O)c1cn(-c2ccc3ncnc(Nc4c(F)ccc(NS(=O)(=O)c5cccc(Cl)c5Cl)c4F)c3n2)c2ccc(F)cc12", "value-type": "pIC50", "experimental-result": "> 6.30"}
{"query-smiles": "Cc1c(F)cccc1S(=O)(=O)Nc1ccc(F)c(Nc2ncnc3ccc(-n4ncc5c4CCCN5CCO)nc23)c1F", "value-type": "pIC50", "experimental-result": "6.00 to 6.30"}
{"query-smiles": "CCN1CCN(S(=O)(=O)c2cn(-c3ccc4ncnc(Nc5c(F)ccc(NS(=O)(=O)c6cccc(F)c6C)c5F)c4n3)c3ccccc23)CC1", "value-type": "pIC50", "experimental-result": "> 6.30"}
{"query-smiles": "Cc1c(F)cccc1S(=O)(=O)Nc1ccc(F)c(Nc2ncnc3ccc(-n4cc(S(=O)(=O)N5CCC(N(C)C)CC5)c5ccccc54)nc23)c1F", "value-type": "pIC50", "experimental-result": "> 6.30"}
{"query-smiles": "CC1(O)CCN(c2cccc3c2ncn3-c2ccc3ncnc(Nc4c(F)ccc(NS(=O)(=O)c5cccc(Cl)c5Cl)c4F)c3n2)CC1", "value-type": "pIC50", "experimental-result": "> 6.30"}
{"query-smiles": "O=S(=O)(Nc1ccc(F)c(Nc2ncnc3ccc(-n4cc(S(=O)(=O)N5CCN(CCOCCO)CC5)c5ccccc54)nc23)c1F)c1cccc(Cl)c1Cl", "value-type": "pIC50", "experimental-result": "> 6.30"}
{"query-smiles": "Cc1c(F)cccc1S(=O)(=O)Nc1ccc(F)c(Nc2ncnc3ccc(-n4cnc5c(-c6cccnc6N)cccc54)nc23)c1F", "value-type": "pIC50", "experimental-result": "> 6.30"}
{"query-smiles": "CN1CCCN(S(=O)(=O)c2cn(-c3ccc4ncnc(Nc5c(F)ccc(NS(=O)(=O)c6cccc(Cl)c6Cl)c5F)c4n3)c3ccccc23)CC1", "value-type": "pIC50", "experimental-result": "> 6.30"}

----------
- target-system: BRAF (Homo sapiens (Human), UniProt P15056)
- Sequence (P15056 whole entry): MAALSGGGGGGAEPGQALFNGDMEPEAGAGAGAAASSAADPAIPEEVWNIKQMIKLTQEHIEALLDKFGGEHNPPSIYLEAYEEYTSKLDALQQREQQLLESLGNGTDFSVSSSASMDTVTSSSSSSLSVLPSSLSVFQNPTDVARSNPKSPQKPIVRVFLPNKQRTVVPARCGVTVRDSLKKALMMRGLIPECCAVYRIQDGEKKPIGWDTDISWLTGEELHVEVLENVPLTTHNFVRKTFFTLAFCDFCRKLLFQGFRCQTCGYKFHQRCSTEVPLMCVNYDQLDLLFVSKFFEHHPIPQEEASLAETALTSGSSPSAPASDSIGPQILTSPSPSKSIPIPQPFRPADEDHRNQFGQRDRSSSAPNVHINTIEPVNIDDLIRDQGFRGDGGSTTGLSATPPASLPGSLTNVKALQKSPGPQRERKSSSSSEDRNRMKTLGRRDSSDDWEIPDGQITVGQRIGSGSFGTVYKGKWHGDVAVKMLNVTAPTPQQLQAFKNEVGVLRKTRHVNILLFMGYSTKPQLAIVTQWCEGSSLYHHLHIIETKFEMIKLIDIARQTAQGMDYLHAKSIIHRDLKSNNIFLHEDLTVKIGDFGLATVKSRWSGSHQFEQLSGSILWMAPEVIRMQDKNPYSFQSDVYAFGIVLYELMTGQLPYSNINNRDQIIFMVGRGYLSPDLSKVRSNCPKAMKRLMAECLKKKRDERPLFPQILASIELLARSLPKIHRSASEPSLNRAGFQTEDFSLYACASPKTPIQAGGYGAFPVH
- method: BRAF kinase activity assay (ADP-Glo)
- Type: biochemical
- protocol-conditions: Table 5; read-out: Kinase IC50 (nM) BRAF
value-type: IC50

{"compound": "O=S(=O)(Nc1cccc(Nc2ncnc3ccc(-n4cnc5ccccc54)nc23)c1F)c1cccc(Cl)c1Cl [Example 646]", "value-type": "IC50", "experimental-result": "1 to 10 nM"}
{"compound": "O=S(=O)(Nc1cc(F)c(F)c(Nc2ncnc3ccc(-n4nnc5ccccc54)nc23)c1F)c1cccc(Cl)c1Cl [Example 649]", "value-type": "IC50", "experimental-result": "1 to 10 nM"}
{"compound": "Cc1c(Cl)cccc1S(=O)(=O)Nc1cccc(Nc2ncnc3ccc(-n4cnc5ccccc54)nc23)c1F [Example 240]", "value-type": "IC50", "experimental-result": "1 to 10 nM"}
{"compound": "COc1ccc(S(=O)(=O)Nc2ccc(F)c(Nc3ncnc4ccc(-n5cnc6ccccc65)nc34)c2Cl)cc1 [Example 239]", "value-type": "IC50", "experimental-result": "> 10 nM"}
{"compound": "O=S(=O)(Nc1cc(F)c(F)c(Nc2ncnc3ccc(-n4cnc5ccccc54)nc23)c1F)c1cccc(Cl)c1Cl [Example 648]", "value-type": "IC50", "experimental-result": "1 to 10 nM"}

----------
- System: HCT-116 cells (KRAS G13D)
- method: Proliferation inhibition (CellTiter-Glo), HCT116
- Format: cell-based, human
- protocol-conditions: HCT116, 3 days; read-out: HCT116 Prolif. EC50

{"compound": "Nc1cccc2c1ncn2-c1ccc2ncnc(Nc3c(F)ccc(NS(=O)(=O)c4cccc(Cl)c4Cl)c3F)c2n1 [Example 99]", "EC50": "300 to 3000 nM"}
{"compound": "CC1(O)CCN(c2cccc3c2ncn3-c2ccc3ncnc(Nc4c(F)ccc(NS(=O)(=O)c5cccc(Cl)c5Cl)c4F)c3n2)CC1 [Example 524]", "EC50": "300 to 3000 nM"}

----------
- target-system: CRAF (Homo sapiens)
- Sequence (P04049 whole entry, looked up): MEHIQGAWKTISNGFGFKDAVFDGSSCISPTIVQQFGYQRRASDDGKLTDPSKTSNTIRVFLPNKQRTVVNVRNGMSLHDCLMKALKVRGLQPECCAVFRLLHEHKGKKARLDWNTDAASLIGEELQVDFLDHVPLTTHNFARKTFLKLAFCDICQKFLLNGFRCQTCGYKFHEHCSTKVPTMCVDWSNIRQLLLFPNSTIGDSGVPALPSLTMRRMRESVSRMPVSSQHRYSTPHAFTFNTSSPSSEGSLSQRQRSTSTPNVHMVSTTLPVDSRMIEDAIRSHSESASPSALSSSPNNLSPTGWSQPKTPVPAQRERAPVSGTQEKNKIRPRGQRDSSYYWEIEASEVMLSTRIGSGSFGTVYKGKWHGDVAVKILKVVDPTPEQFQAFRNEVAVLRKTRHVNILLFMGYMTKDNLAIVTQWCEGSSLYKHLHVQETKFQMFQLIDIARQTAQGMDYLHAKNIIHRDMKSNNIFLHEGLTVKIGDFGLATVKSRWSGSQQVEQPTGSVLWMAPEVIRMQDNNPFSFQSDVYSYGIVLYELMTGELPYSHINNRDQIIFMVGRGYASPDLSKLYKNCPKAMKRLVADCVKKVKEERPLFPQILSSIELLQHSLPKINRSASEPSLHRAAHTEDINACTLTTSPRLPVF
- method: CRAF kinase activity assay (ADP-Glo)
- Assay type: biochemical
- protocol-conditions: § symbols; read-out: Kinase IC50

{"compound": "Cc1c(F)cccc1S(=O)(=O)Nc1ccc(F)c(Nc2ncnc3ccc(-n4cnc5c(CO)cccc54)nc23)c1F [Example 345]", "IC50": "< 10 nM"}
{"compound": "Cc1c(F)cccc1S(=O)(=O)Nc1ccc(F)c(Nc2ncnc3ccc(-n4cnc(/C=C/C#N)c4)nc23)c1F [Example 343]", "IC50": "10 to 50 nM"}
{"compound": "CC(=O)N1CCCc2nn(-c3ccc4ncnc(Nc5c(F)ccc(NS(=O)(=O)c6cccc(Cl)c6Cl)c5F)c4n3)cc21 [Example 486]", "IC50": "< 10 nM"}

----------
The entries below are paired with their reported HCT116 pERK Ymin %.
- Test system: pERK in HCT-116 cells (KRAS G13D)
- method: Phospho-ERK inhibition (AlphaLISA SureFire Ultra p-ERK 1/2), HCT116
- Type: cell-based, human
- protocol-conditions: HCT116 cells; Ymin in brackets
value-type: HCT116 pERK Ymin % (%)

{"compound": "COc1ccc(S(=O)(=O)Nc2ccc(F)c(Nc3ncnc4ccc(-n5ccnc5)nc34)c2F)cc1 [Ex 33]", "experimental-result": 5}
{"compound": "COc1ccc(S(=O)(=O)Nc2ccc(F)c(Nc3ncnc4ccc(-n5cnc6nccnc65)nc34)c2F)c(C)c1 [Ex 60]", "experimental-result": "−10"}
{"compound": "NCC(=O)c1cn(-c2ccc3ncnc(Nc4c(F)ccc(NS(=O)(=O)c5ccccc5Cl)c4F)c3n2)c2ccccc12 [Example 223]", "experimental-result": "−9"}
{"compound": "Nc1nc(-c2ccc3ncnc(Nc4c(F)ccc(NS(=O)(=O)c5ccccc5Cl)c4F)c3n2)cs1 [Example 94]", "experimental-result": "−5"}
